Target or system: T1, human IL-11Rα on transfected cells (human, UniProt Q14626 23-422)
T1 sequence: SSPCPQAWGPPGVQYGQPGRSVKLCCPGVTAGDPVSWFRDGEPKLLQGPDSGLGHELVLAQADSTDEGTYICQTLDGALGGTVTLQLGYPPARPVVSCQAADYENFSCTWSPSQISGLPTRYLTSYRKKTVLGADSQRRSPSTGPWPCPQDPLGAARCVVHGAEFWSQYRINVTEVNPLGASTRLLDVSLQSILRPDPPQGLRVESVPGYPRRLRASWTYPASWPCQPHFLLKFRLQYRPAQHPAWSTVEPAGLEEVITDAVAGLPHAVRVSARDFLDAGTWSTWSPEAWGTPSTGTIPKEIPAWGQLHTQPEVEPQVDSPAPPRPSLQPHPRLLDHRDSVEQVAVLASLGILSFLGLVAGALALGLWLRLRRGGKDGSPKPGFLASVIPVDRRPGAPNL
Experimental details: cell-based or functional assay
Measured quantity: Fold increase in potency relative to 8E2 (fold)
Use fold as the unit, but write only the number.

Field Fold increase in potency relative to 8E2 (entry hu8E2-TS-49 (antibody, V domains shown) VH: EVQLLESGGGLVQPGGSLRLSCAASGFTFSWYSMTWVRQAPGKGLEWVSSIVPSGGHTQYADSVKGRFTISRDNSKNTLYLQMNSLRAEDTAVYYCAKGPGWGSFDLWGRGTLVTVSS VL: DIQMTQSPSSLSASVGDRVTITCQASQDINNYLNWYQQKPGKAPKLLIYDASNLQTGVPSRFSGSGSGTDFTFTISSLQPEDIATYYCQQYESQAPEFGPGTKVDIK ) reads 5.2
